- Tested on: IL-6 production in primary human mesangial cells
- EXPERIMENTAL_PROTOCOL: ET-1 induced IL-6 production (ELISA) in primary human renal mesangial cells
- Type: cell-based
- CONDITION: 72 hours; 10 ng/mL ET-1; read-out: IC50, ET-1 stimulated IL-6 production in HRMCs
EXPERIMENTAL_READOUT: IC50
# number then unit; no other words

Prompt: Given the entry CCCCN(CCCC)C(=O)CN1C[C@H](c2ccc3c(c2)OCO3)[C@@H](C(=O)O)[C@@H]1c1ccc(OC)cc1 [Atrasentan] , what IC50 was observed with IL-6 production in primary human mesangial cells?
Response: 0.65 nM
